Reference for the values: the supplement of paper PMC3545927

- Test System: furin, P09958;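 also: purified furin at 1:10 enzyme:substrate in 50 mM HEPES pH 7.5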
- Sequence (P09958 whole entry): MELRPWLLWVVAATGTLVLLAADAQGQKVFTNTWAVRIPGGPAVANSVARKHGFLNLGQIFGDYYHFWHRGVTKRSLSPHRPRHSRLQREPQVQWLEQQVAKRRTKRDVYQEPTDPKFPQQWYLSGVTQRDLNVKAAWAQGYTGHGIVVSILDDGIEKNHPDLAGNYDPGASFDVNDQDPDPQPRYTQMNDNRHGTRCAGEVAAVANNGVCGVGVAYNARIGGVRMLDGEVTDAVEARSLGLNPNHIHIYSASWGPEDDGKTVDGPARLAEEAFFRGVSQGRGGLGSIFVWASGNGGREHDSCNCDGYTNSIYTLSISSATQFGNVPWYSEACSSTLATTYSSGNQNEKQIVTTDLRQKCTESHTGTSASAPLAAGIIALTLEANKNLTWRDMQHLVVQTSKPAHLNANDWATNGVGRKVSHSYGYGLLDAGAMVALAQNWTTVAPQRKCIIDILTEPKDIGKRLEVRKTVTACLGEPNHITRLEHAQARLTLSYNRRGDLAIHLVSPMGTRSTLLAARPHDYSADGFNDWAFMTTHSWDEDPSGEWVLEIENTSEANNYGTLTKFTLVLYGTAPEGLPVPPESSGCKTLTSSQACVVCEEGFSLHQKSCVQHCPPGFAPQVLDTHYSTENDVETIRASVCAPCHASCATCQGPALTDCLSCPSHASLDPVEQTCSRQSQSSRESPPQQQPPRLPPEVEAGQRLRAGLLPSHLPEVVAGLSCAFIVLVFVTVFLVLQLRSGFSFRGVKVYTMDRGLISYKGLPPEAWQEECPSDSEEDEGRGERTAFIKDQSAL
- Test: furin cleavage Z-score vs untreated control; higher = more cleavage, active = 3.5 or more, inactive = 1 or less, 8 variable residues between constant flanks
- Condition Set: 15 min
The list shows a part of the results. How many sequences the whole screen found active is unknown.
Experimental Readout: furin cleavage Z-score

Below are worked cases with known answers.
Seq: CAIEANLLWRAGNASASA [HC1274]
Experimental Readout: furin cleavage Z-score
Result: 0.419 (inactive)
//
Seq: CAHLNSTALNAGNASASA [HC371]
Experimental Readout: furin cleavage Z-score
Result: 0.509 (inactive)
//
Seq: CADLLEDNVTAGNASASA [HC1433]
Experimental Readout: furin cleavage Z-score
Result: -2.11 (inactive)
//
Seq: CAEVVTSTWKAGNASASA [HC2254]
Experimental Readout: furin cleavage Z-score
Result: -0.194 (inactive)

## Input Note furin cleavage Z-score for the sequence shown: CAVTRHADVIAGNASASA [HC727]
## Output 1

## Input Note furin cleavage Z-score for the sequence shown: CAESEVPCHRAGNASASA [HC2457]
## Output 0.0197 (inactive)

## Input Note furin cleavage Z-score for the sequence shown: CATTPWSGSWAGNASASA [HC47]
## Output -0.0349 (inactive)

## Input Note furin cleavage Z-score for the sequence shown: CAHKFNSSGCAGNASASA [HC383]
## Output -1.4 (inactive)

## Input Note furin cleavage Z-score for the sequence shown: CANVPCHRPSAGNASASA [HC2321]
## Output 0.859 (inactive)

## Input Note furin cleavage Z-score for the sequence shown: CAALVVGVVCAGNASASA [HC1106]
## Output -0.584 (inactive)

## Input Note furin cleavage Z-score for the sequence shown: CASTPCSANLAGNASASA [HC2561]
## Output 0.852 (inactive)

## Input Note furin cleavage Z-score for the sequence shown: CATFPCSGSWAGNASASA [HC1847]
## Output -0.806 (inactive)
